# method: sensitizers of A549 cells to miR-34 induction, primary screen, imaging, A549 dox-inducible miR-34, nuclei and caspase counts (AID 1347080)
# experimental_conditions: A549 miR-34 inducible, Hoechst nuclei count, 48 h; measured here: total cells with miR-34 induction; stronger effect = lower value
recorded_metric: cell count
Reply with the value as a number alone.

For orientation, consider the following solved cases.
compound	recorded_metric	quantitative_result
O=P(O)(O)OC(CO)CO	cell count	8550
NCC[C@H](O)C(=O)N[C@@H]1C[C@H](N)[C@@H](O[C@H]2O[C@H](CN)[C@@H](O)[C@H](O)[C@H]2O)[C@H](O)[C@H]1O[C@H]1O[C@H](CO)[C@@H](O)[C@H](N)[C@H]1O	cell count	8210
CC(CNC1CCCCC1)OC(=O)c1ccccc1 (centres undefined)	cell count	9180
CCN(CC)CCNC(=O)c1c(C)[nH]c(/C=C2\C(=O)Nc3ccc(F)cc32)c1C	cell count	715
CC(C)OC(=O)C(C(=O)OC(C)C)=C1SC=CS1	cell count	7660

Q: Quick one: cell count for CC(=O)N(CC(O)CN(C(C)=O)c1c(I)c(C(=O)NCC(O)CO)c(I)c(C(=O)NCC(O)CO)c1I)c1c(I)c(C(=O)NCC(O)CO)c(I)c(C(=O)NCC(O)CO)c1I (centres undefined) ?
Ans: 8820

Q: Requested read-out: cell count. Entry: "CCN[C@H]1CN(CCCOC)S(=O)(=O)c2sc(S(N)(=O)=O)cc21"
Ans: 8040

Q: If you can, please state the reported cell count value of "CC(C)c1nc(N(C)S(C)(=O)=O)nc(-c2ccc(F)cc2)c1/C=C/[C@@H](O)C[C@@H](O)CC(=O)O" .
Ans: 12000

Q: // query cell count value for entry "Nc1cc(=O)[nH]c(N)n1"
Ans: 9880

Q: I am curious: what cell count value has been reported for "CCCCCCCCOc1ccccc1C(=O)Nc1ccc(C(=O)OCC[N+](C)(CC)CC)cc1" ?
Ans: 7980

Q: What measured cell count goes with "Cl/C(=C\n1cncn1)c1ccc(Cl)cc1Cl" ?
Ans: 8590

Q: // lookup cell count for "OCc1ccccn1"
Ans: 8220

Q: // query cell count value for entry "C[C@@H]1C[C@H]2[C@@H]3CCC4=CC(=O)C=C[C@]4(C)[C@@]3(Cl)[C@@H](O)C[C@]2(C)[C@@]1(OC(=O)c1ccco1)C(=O)CCl"
Ans: 4000

Q: GET /values?readout=cell count&item= C=CC1=C(C(=O)O)N2C(=O)[C@@H](NC(=O)/C(=N\O)c3csc(N)n3)[C@H]2SC1 (stereo in doubt)
Ans: 12500

Q: What measured cell count goes with CC(=O)N(CC(O)CO)c1c(I)c(C(=O)NCCO)c(I)c(C(=O)NCC(O)CO)c1I (centres undefined) ?
Ans: 9070

Q: Item under review: "c1ccc2c(Cc3c[nH]c4ccccc34)c[nH]c2c1" . Reported cell count?
Ans: 4780

Q: Would you mind telling me what cell count value was observed for "O=C(N[C@@H](Cc1ccccc1)C(=O)CCl)OCc1ccccc1" ?
Ans: 816

Q: Form field: reported cell count of C#CC1(O)CC[C@H]2[C@@H]3CCC4=CCCC[C@@H]4[C@H]3CC[C@@]21C (some centres undefined)
Ans: 8290

Q: Request the reported cell count associated with Nc1nc(NCC2CCC(CNS(=O)(=O)c3cccc4ccccc34)CC2)nc2ccccc12 (centres undefined)
Ans: 322

* * *

# method: differential killing of epithelial or mesenchymal cells, primary screen, imaging, PC-3E GFP, TEM4-18 mCherry, co-culture (AID 1345086);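 note: cells exposed to compound for 72 h before imaging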
# experimental_conditions: imaging cell counts, measured here: mesenchymal TEM4-18 mCherry cell survival, at 1 µM
# normalised cell number annotations

See these solved cases before continuing.
molecule_smiles	result
CC(=O)Nc1ccc(C(=O)O)cc1	0.99
OC[C@@H](O)[C@@H](O[C@@H]1O[C@H](CO)[C@@H](O)[C@H](O)[C@H]1O)[C@H](O)[C@@H](O)CO	0.9
COc1ccc2c(c1)OC/C(=C\c1ccc(OC)c(O)c1)C2=O	0.74
Cc1cccc(C)c1NC(=O)CN1CCN(CCCC(c2ccc(F)cc2)c2ccc(F)cc2)CC1	1.13

// next entry
Q: Fill blank: measured normalised cell number of the compound "COc1ccc(-c2c(O)c3c(OC)c4c(cc3oc2=O)OC(C)(C)C=C4)cc1" is ____.
Ans: 0.92

* * *

# method: sensitizers of A549 cells to miR-34 induction, primary screen, imaging, A549 dox-inducible miR-34, nuclei and caspase counts (AID 1347080)
# experimental_conditions: A549 miR-34 inducible, Hoechst nuclei count, 48 h; measured here: total cells without miR-34 induction
Mark true for cell count under 10000, false if at or over.

compound	label_value
C[C@H]1O[C@@H](O[C@H]2[C@@H](O)C[C@H](O[C@H]3[C@@H](O)C[C@H](O[C@H]4CC[C@@]5(C)[C@H](CC[C@@H]6[C@@H]5C[C@@H](O)[C@]5(C)[C@@H](C7=CC(=O)OC7)CC[C@]65O)C4)O[C@@H]3C)O[C@@H]2C)C[C@H](O)[C@@H]1O	true
CCOC(=O)c1c(C)n(C)c2ccc(O)cc12	true
CN1CCN(CCCN2c3ccccc3Sc3ccc(S(=O)(=O)N(C)C)cc32)CC1	true

Q: Given "C=C1C(=O)O[C@H]2[C@H]1CC/C(C)=C/CC[C@@]1(C)O[C@@H]21" , is recorded cell count strictly lower than 10000?
Ans: true

Q: Bench note: check whether "CC1=C(/C=C/C(C)=C/C=C/C(C)=C/CO)C(C)(C)CCC1" shows cell count below 10000
Ans: false

Q: Take the compound CCOc1ccc(NC(=O)CC(C)O)cc1 (stereo not given) and say whether its cell count is less than 10000.
Ans: true

Q: For "NC(N)=O" , is the recorded cell count below the cut-off of 10000?
Ans: false

Q: Determine whether this compound shows cell count lower than 10000 (ties excluded): "O=C1[O][Bi][O]c2ccccc21"
Ans: false

Q: A record lists "NCCNCCNCCN" . Is its cell count below 10000?
Ans: false

* * *

Measured viability accompanies every entry in the list below.
# method: ovarian cancer cell viability with rucaparib, profiling panel, oncology-focused library, rucaparib conditional (AID 1508598)
# experimental_conditions: patient-derived ovarian cancer cells, CellTiter-Glo viability, 144 h; at 0.0195 µM; OCI-C5x cells; without rucaparib; stronger effect = lower value
Return type: number; implicit unit %.

Worked set:
molecule_smiles	measurement_units	quantitative_result
Nc1ncn([C@H]2C[C@H](O)[C@@H](CO)O2)c(=O)n1	%	108
Cc1ccc(Nc2nccc(N(C)c3ccc4c(C)n(C)nc4c3)n2)cc1S(N)(=O)=O	%	100

Q: Given "COc1cc(Nc2c(C#N)cnc3cc(OCCCN4CCN(C)CC4)c(OC)cc23)c(Cl)cc1Cl" , state its recorded viability.
Ans: 104

Q: Recorded viability for "COc1c(C)c2c(c(O)c1C/C=C(\C)CCC(=O)O)C(=O)OC2" , please?
Ans: 129

Q: Which viability is listed for "CC(C)C[C@H](NC(=O)[C@H](Cc1ccccc1)NC(=O)c1cnccn1)B(O)O" ?
Ans: 15.9

* * *

# method: decreased DLD-1 cellular survival, CellTiter-Glo luminescent readout, NPC compound collection, primary HTS (AID 1117346)
# experimental_conditions: DLD-1 viability, CellTiter-Glo luminescence; at 20 µM (top of the series)
Items are presented alongside their recorded viability decrease (inhibition).
State the answer as a number, implicitly in %.

Please review the following examples before continuing.
molecule	measurement_units	viability decrease (inhibition)
O=C(OCCOCCO)c1ccccc1Nc1cccc(C(F)(F)F)c1	%	45.7
COC(=O)[C@@H](N)Cc1ccc(O)c(O)c1	%	15.2
CC1(C)[C@H](C(=O)O)N2C(=O)C[C@H]2S1(=O)=O	%	3.8
CC(C)(C(=O)O)c1ccc(C(O)CCCN2CCC(C(O)(c3ccccc3)c3ccccc3)CC2)cc1 (stereo unspecified)	%	-0.4

Q: What measured viability decrease (inhibition) goes with "N#Cc1c(N(CC(=O)O)CC(=O)O)sc(C(=O)O)c1CC(=O)O" ?
Ans: -13.8

Q: Entry under review: "NC(=O)N[C@@H](CCC(=O)O)C(=O)O" . Reported viability decrease (inhibition)?
Ans: 1

* * *

# red/green cell ratio (normalised) per record follows
# method: differential killing of epithelial or mesenchymal cells, primary screen, imaging, PC-3E GFP, TEM4-18 mCherry, co-culture (AID 1345086);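 note: cells exposed to compound for 72 h before imaging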;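 for red/green cell ratio (normalised): normalised mesenchymal count divided by normalised epithelial count so high means epithelial killing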
# experimental_conditions: imaging cell counts, at 1 µM, actives lie on both sides, counts scaled to control wells, 1 = unselective
Write the value as a bare number.

Consider the following illustrative entries.
molecule	red/green cell ratio (normalised)
CN(C)CCC(c1ccc(Cl)cc1)c1ccccn1 (stereo unspecified)	1.02
Cc1ncc(CSSCc2cnc(C)c(O)c2CO)c(CO)c1O	0.89
NC[C@H]1O[C@H](O[C@H]2[C@H](O)[C@@H](O[C@H]3O[C@H](CO)[C@@H](O)[C@H](N)[C@H]3O)[C@H](N)C[C@@H]2N)[C@H](N)C[C@@H]1O	1.17
O=C1c2ccccc2C(=O)C1c1ccc(Br)cc1	0.9
N.N.O=C([O-])C1(C(=O)[O-])CCC1.[Pt+2]	0.96
CC12CCCC(O)(C1)C1CC(C)(C)C1CC2 (stereo unspecified)	0.85
CCOc1ccc2nc(S(N)(=O)=O)sc2c1	0.96
CC(C)=CCc1c2c(c3occ(-c4ccc(O)cc4)c(=O)c3c1O)C=CC(C)(C)O2	1.02
O=C(CCc1ccc(O)cc1)c1c(O)cc(O)cc1O	1.14
CCN(CC)C(=O)c1ccc(O)c(OC)c1	1.01

Q: Given the entry COc1cc2c(cc1OC)C1C(=O)c3c(cc4c(c3O)C=CC(C)(C)O4)OC1CO2 (stereo unspecified) , report its measured red/green cell ratio (normalised).
Ans: 0.76
